Molecular target: BTK enzyme (recombinant full-length BTK, hBTK) (Homo sapiens (Human))
Sequence (Q06187 whole entry): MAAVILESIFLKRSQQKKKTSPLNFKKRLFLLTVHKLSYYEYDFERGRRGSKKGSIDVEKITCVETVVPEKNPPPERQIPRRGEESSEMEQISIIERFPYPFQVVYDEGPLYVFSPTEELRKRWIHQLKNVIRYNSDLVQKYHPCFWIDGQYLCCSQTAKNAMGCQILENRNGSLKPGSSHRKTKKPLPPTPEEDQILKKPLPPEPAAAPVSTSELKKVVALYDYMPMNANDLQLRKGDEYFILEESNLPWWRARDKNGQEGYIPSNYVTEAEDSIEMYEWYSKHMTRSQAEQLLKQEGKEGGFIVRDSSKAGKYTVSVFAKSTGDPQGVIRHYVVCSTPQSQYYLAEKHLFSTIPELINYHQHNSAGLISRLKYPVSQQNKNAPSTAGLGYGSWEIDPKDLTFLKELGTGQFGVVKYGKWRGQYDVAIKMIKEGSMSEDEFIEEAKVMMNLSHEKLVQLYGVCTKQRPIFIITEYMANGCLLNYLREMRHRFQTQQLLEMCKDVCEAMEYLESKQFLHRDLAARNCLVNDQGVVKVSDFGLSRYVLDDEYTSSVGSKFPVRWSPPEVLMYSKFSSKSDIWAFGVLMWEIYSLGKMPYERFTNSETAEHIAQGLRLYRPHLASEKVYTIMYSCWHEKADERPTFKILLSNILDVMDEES
Assay: Btk enzyme activity assay, LANCE TR-FRET
Settings: 50 pM hBTK, 2 μM biotin-A5-peptide, 25 μM ATP; 60 minute compound & enzyme incubation; read-out: BTK binding IC50
Each item that follows carries a reported pIC50.
By convention, pIC50 is the negative base-10 log of a molar concentration.

// solved cases for pIC50 follow
molecule: CCOc1cc(C(=O)Nc2cc(C(F)(F)F)ccn2)ccc1-c1nc([C@H]2CC[C@](C(=O)O)(C(C)C)C2)n2ccnc(N)c12
assayed-system: BTK enzyme (recombinant full-length BTK, hBTK) (Homo sapiens (Human))
pIC50: 7.91
--
molecule: C[C@H]1CO[C@@H](c2nc(-c3ccc(C(=O)Nc4cc(C(F)(F)F)ccn4)cc3)c3c(N)nccn23)CN1[C@H]1CC[C@@](C)(C(=O)O)CC1
assayed-system: BTK enzyme (recombinant full-length BTK, hBTK) (Homo sapiens (Human))
pIC50: 8.55
--
molecule: C[C@@]1(C(=O)O)CCN(c2nc(-c3ccc(C(=O)Nc4cc(C(F)(F)F)ccn4)cc3)c3c(N)nccn23)C1
assayed-system: BTK enzyme (recombinant full-length BTK, hBTK) (Homo sapiens (Human))
pIC50: 8.74
--
molecule: CC1(C(=O)O)CCC(c2nc(-c3ccc(C(=O)Nc4cc(C(F)(F)F)ccn4)cc3F)c3c(N)ncc(Cl)n23)CC1 (centres unmarked)
assayed-system: BTK enzyme (recombinant full-length BTK, hBTK) (Homo sapiens (Human))
pIC50: 8.72
--
molecule: CCOc1cc(C(=O)Nc2cc(C(F)(F)F)ccn2)c(F)cc1-c1nc(C23CCC(C(=O)O)(CC2)CC3)n2ccnc(N)c12
assayed-system: BTK enzyme (recombinant full-length BTK, hBTK) (Homo sapiens (Human))
pIC50: 9.25
--
molecule: CCc1ccnc(NC(=O)c2ccc(-c3nc([C@@H]4CCC[C@H](C(=O)O)C4)n4ccnc(N)c34)cc2)c1
assayed-system: BTK enzyme (recombinant full-length BTK, hBTK) (Homo sapiens (Human))
pIC50: 8.85
--
molecule: CCOc1cc(C(=O)Nc2cc(C(F)(F)F)n(C)n2)ccc1-c1nc([C@@H]2CC[C@](C(=O)O)(C(C)C)C2)n2ccnc(N)c12
assayed-system: BTK enzyme (recombinant full-length BTK, hBTK) (Homo sapiens (Human))
pIC50: 7.62
--
molecule: Nc1nccn2c(C34CCC(C(=O)O)(CC3)CC4)nc(-c3ccc(C(=O)Nc4cc(C(F)(F)F)ccn4)cc3)c12
assayed-system: BTK enzyme (recombinant full-length BTK, hBTK) (Homo sapiens (Human))
pIC50: 9.89
--
molecule: Nc1nccn2c([C@@H]3CCCN(C(=O)C4CC4C(=O)O)C3)nc(-c3ccc(C(=O)Nc4cc(C(F)(F)F)ccn4)cc3)c12 (some centres unmarked)
assayed-system: BTK enzyme (recombinant full-length BTK, hBTK) (Homo sapiens (Human))
pIC50: 8.89
--
molecule: Nc1nccn2c(C34CCC(C(=O)O)(CC3)CC4)nc(-c3ccc(C(=O)Nc4cc(C5CC5)ccn4)cc3)c12
assayed-system: BTK enzyme (recombinant full-length BTK, hBTK) (Homo sapiens (Human))
pIC50: 9.72

Give recorded pIC50 with BTK enzyme (recombinant full-length BTK, hBTK) (Homo sapiens (Human)) for the following molecule: Nc1nccn2c([C@@H]3C[C@@H]3C(=O)O)nc(-c3ccc(C(=O)Nc4cc(C(F)(F)F)ccn4)cc3)c12
6.12

Give recorded pIC50 with BTK enzyme (recombinant full-length BTK, hBTK) (Homo sapiens (Human)) for the following molecule: CC1(C(=O)O)CCC(C)(c2nc(-c3ccc(C(=O)Nc4cc(C(F)(F)F)ccn4)cc3)c3c(N)nccn23)C1 (centres unmarked)
9.57

Give recorded pIC50 with BTK enzyme (recombinant full-length BTK, hBTK) (Homo sapiens (Human)) for the following molecule: C[C@]1(C(=O)O)CC[C@@](C)(c2nc(-c3ccc(C(=O)Nc4cc(C(F)(F)F)ccn4)cc3)c3c(N)nccn23)C1
8.62

Give recorded pIC50 with BTK enzyme (recombinant full-length BTK, hBTK) (Homo sapiens (Human)) for the following molecule: CCOc1cc(C(=O)Nc2cc(C(F)(F)F)ccn2)ccc1-c1nc([C@H]2CC[C@](C(=O)O)(C(C)C)C2)n2c(Cl)cnc(N)c12
8.68

Give recorded pIC50 with BTK enzyme (recombinant full-length BTK, hBTK) (Homo sapiens (Human)) for the following molecule: C[C@]1(C(=O)O)CCC[C@@H](c2nc(-c3ccc(C(=O)Nc4cc(C5CC5)ccn4)cc3)c3c(N)nccn23)C1
8.55
